biological target: Recombinant Human Siglec-3/CD33 protein (His-CD33) (Homo sapiens (Human)); test: Differential scanning fluorimetry (DSF) thermal shift assay; assay type: binding; settings: thermal melt shift of 0.5 μM CD33 protein with 50 μM compound
Sequence (P20138 18-259): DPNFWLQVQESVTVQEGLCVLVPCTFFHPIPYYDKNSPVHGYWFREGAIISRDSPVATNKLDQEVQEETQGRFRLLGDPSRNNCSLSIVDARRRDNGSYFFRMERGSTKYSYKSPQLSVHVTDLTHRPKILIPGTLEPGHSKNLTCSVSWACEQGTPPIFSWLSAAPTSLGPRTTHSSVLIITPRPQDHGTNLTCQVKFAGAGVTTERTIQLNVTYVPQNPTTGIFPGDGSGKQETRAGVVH
Label rule, in plain words: DSF (dTmD) of 10 and up is yes (1), under 10 is no (0).

# count of solved cases: 3
>>> answer_label("CC(=O)N[C@H]1[C@H]([C@H](O)[C@H](O)CNC(=O)c2cc(C)c(O)c(C)c2)O[C@@](CCN2CCOC[C@@]23CCN(C(=O)C2CCCC2)C3)(C(=O)O)C[C@@H]1O")
"yes (1)"
>>> answer_label("CC(=O)N[C@H]1[C@H]([C@H](O)[C@H](O)CNC(=O)c2cc(C)c(O)c(C)c2)O[C@@](CCCC2(C)CCN(C(=O)OC(C)(C)C)C2)(C(=O)O)C[C@@H]1O (some centres unmarked)")
"no (0)"
>>> answer_label("CC(=O)N[C@H]1[C@H]([C@H](O)[C@H](O)CNC(=O)c2cc3ncccn3n2)O[C@@](CCN2CCOC[C@@]23CCN(C(=O)OC(C)(C)C)C3)(C(=O)O)C[C@@H]1O")
"yes (1)"

API: above_or_equal(metric=DSF (dTmD), cutoff=10) for item `CC(=O)N[C@H]1[C@H]([C@H](O)[C@H](O)CNC(=O)c2ccc3ncsc3c2)O[C@@](CCN2CCOC[C@@]23CCN(C(=O)OC(C)(C)C)C3)(C(=O)O)C[C@@H]1O` yes (1)

Does DSF (dTmD) meet or surpass 10 for `CC(=O)N[C@H]1[C@H]([C@H](O)[C@H](O)CNC(=O)c2cc(-c3csc(C)n3)on2)O[C@@](CCN2CCOC[C@@]23CCN(C(=O)OC(C)(C)C)C3)(C(=O)O)C[C@@H]1O` ? no (0)

Check if DSF (dTmD) >= 10 (inclusive). Item: `CC(=O)N[C@H]1[C@H]([C@H](O)[C@H](O)CNC(=O)c2cc(C)c(O)c(C)c2)O[C@@](CCN2CCN(C)C[C@]23CCN(C(=O)OC(C)(C)C)C3)(C(=O)O)C[C@@H]1O` no (0)

Determine whether measured DSF (dTmD) meets or exceeds 10 for `CC(=O)N[C@H]1[C@H]([C@H](O)[C@H](O)CNC(=O)c2nc(C)oc2C)O[C@@](CCN2CCOC[C@@]23CCN(C(=O)OC(C)(C)C)C3)(C(=O)O)C[C@@H]1O` no (0)
